Source: patent US20230310631A1

molecular target: human glucagon receptor (human, UniProt P47871 26-477); test: cell-based or functional assay
Sequence (P47871 26-477): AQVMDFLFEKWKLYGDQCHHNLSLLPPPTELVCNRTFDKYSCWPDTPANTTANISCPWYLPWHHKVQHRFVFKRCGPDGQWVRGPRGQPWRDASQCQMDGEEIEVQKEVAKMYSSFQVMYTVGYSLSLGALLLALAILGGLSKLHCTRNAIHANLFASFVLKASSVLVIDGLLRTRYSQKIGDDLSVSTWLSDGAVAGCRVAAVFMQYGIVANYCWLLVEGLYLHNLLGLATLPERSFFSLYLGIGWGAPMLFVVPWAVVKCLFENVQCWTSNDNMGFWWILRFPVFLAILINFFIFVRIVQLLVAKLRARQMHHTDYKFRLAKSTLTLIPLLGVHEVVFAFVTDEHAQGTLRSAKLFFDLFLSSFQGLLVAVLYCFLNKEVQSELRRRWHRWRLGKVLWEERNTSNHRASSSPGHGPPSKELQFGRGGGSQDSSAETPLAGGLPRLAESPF
Bridge positions count the residues as written; N and C are the ends. Square brackets hold non-standard residues; d marks the D form. Ends that are not written are not given here. Aib = CC(C)(N)C(=O)O
MEASUREMENT_LABEL: In vitro Activity (relative activity to SEQ ID NO: 1, %); cAMP assay, from EC50

{"columns": ["BINDER", "RESULT"],
 "data": [
  ["Y[Aib]QGTFTSDYSKYLDEKRAKCFVQWLMNT (lactam 16-20) [glucagon derivative of SEQ ID NO: 25]", 46.9]
]}

(I) Y[Aib]QGTFTSDYSKYLDEKCAKEFVQWLMNT (not fully specified (bridges)) [glucagon derivative of SEQ ID NO: 11]
(II) Y[Aib]QGTFTSDCSKYLDERRAKEFVQWLMNT (lactam 16-20) [glucagon derivative of SEQ ID NO: 36]
input: Return label of the item with the larger In vitro Activity (relative activity to SEQ ID NO: 1, %); cAMP assay, from EC50. Candidates: I , II . Answer by stating the label of the chosen item.
output: II
(II: 9.9%, I: 4.6%)

(1) HSQGTFTSDYSKYLDCDRAQDFVQWLMNT [glucagon derivative of SEQ ID NO: 2]
(2) Y[Aib]QGTFTSDYSCYLDSRRAQDFVQWLMNT [glucagon derivative of SEQ ID NO: 13]
input: Pick one: 1 or 2 . Which one has the lower reported In vitro Activity (relative activity to SEQ ID NO: 1, %); cAMP assay, from EC50? Your answer should be the label of the entry you select.
output: 1
